growth for assorted molecules
System: OVCAR-4 ovarian
experiment: NCI-60 one-dose screen, 48 h (100 = growth as untreated, 0 = no growth, -100 = all killed)
assay.context: 10 µM
Compounds without any hit were thinned out: in the full panel of roughly 83,000, 20% have a hit. Activity calls are given as the source filed them. How the source made its calls: active means growth percent below 10; inactive means the rest.

Q: Note down growth recorded for "Cc1ccc(S(=O)(=O)N2CCN(S(=O)(=O)c3oc(-c4ccccc4)nc3C#N)CC2)cc1"
Result: 71.8% (inactive)

Q: Note down growth recorded for "CC1(C)CC(=O)C2=C(C1)N(Cc1ccc(C(=O)O)cc1)C1=C(C(=O)CC(C)(C)C1)C2c1ccc(Cl)cc1"
Result: 99.5% (inactive)

Q: Note down growth recorded for "C#C[C@]1(O)CC[C@H]2[C@@H]3CC=C4c5sc(Nc6ccc(C(F)(F)F)cn6)nc5CC[C@]4(C)[C@H]3CC[C@@]21C"
Result: 20% (inactive)

Q: Note down growth recorded for "O=C(Nc1ccc(OCC(=O)c2ccc(Cl)cc2)cc1)Nc1ccc(Cl)c(C(F)(F)F)c1"
Result: 38.1% (inactive)

Q: Note down growth recorded for COc1ccc(C2OC[C@@]3(C)C4CC[C@]5(C)C(CC=C6C7CC(C)(C)CC[C@]7(C(=O)O)CC[C@]65C)[C@@]4(C)C[C@@H](O)[C@@H]3O2)cc1 (stereo partly specified)
Result: 86.9% (inactive)

Q: Note down growth recorded for "Cn1cc(-c2nnc(N)nc2-c2c[nH]c3ccccc23)c2cc(Br)cnc21"
Result: 46.5% (inactive)

Q: Note down growth recorded for "O=C(CSc1nc2ccccc2c(=O)n1-c1ccc(Cl)cc1)Nc1ccc(-c2nc3ccccc3[nH]2)cc1"
Result: -75.6% (active)

Q: Note down growth recorded for CC1(C)CC[C@]2(C(=O)O)CC[C@]3(C)C(=CCC4[C@@]5(C)C[C@@H](O)[C@@H]6OC(c7cccc(F)c7)OC[C@@]6(C)C5CC[C@]43C)C2C1 (stereo partly specified)
Result: 54.6% (inactive)

Q: Note down growth recorded for "COc1ccc(NCc2cn(-c3ccc(C(=O)O)cc3)nc2-c2ccc(F)cc2)cc1C(F)(F)F"
Result: 57.2% (inactive)

Q: Note down growth recorded for "CC(C)(C)c1cc(/C=C2\S/C(=N/c3ncn[nH]3)NC2=O)cc(C(C)(C)C)c1O"
Result: 33.8% (inactive)

Q: Note down growth recorded for COc1cc(C2CC(c3ccccc3)=Nc3c(N)nc(N)nc3N2)ccc1Oc1nc(NCCO)nc(N2CCOCC2)n1 (stereo unspecified)
Result: 105% (inactive)

* * *

Tested on: MDA-MB-468 breast
experiment: NCI-60 one-dose screen, 48 h (100 = growth as untreated, 0 = no growth, -100 = all killed)
assay.context: 10 µM unless noted
Protocol: Growth inhibition of the MDA-MB-468 human Breast tumor cell line is measured as a screen for anti-cancer activity. Cells are grown in 96 well plates and exposed to the test compound for 48 hours. Compounds are tested at a single concentration, which is 10^-5 M for most compounds. The reported endpoint is percent growth (GI% or GIPRCNT), where numbers from 0 - 100% represent growth inhibition, and numbers from -100% - 0 represent cell death. […]
The panel holds about 83,000 compounds, 20% with a hit somewhere; the sample as a whole holds those more often.
growth for assorted molecules
Express the result in % but write the number alone.

Worked examples, 5 molecules total:
O=C(CCc1nnc(CN(c2ccccc2)c2ccccc2)o1)c1nc2ccccc2[nH]1
89.1
COc1cc(-c2ccc(NC(=O)CC(C)=O)c(OC)c2)ccc1NC(=O)CC(C)=O
109
Clc1ccc(Nc2nnc(CNc3ccccc3)c3ccccc23)cc1
-16.4
CCN1C(=O)N(CC)C2C1NN=c1s/c(=C\c3cnc(C)n3C)c(=O)n12 (stereo unspecified)
-12.2
COc1cc2c3c(c(=O)oc2cc1OS(=O)(=O)c1ccc(C(F)(F)F)cc1)CCCCC3
67

Q: Note down growth recorded for "CCOc1ccccc1/C=N/N1CCCCCC1"
Result: 108

Q: Note down growth recorded for "Oc1ccccc1/C=N/N1CCCCCC1"
Result: 107

Q: Note down growth recorded for O=[N+]([O-])c1ccc(C2CC(c3ccccc3)=Nc3ccccc3S2)cc1 (stereo unspecified)
Result: 77.7

Q: Note down growth recorded for "CCn1c(=O)c2c(=O)c3c4c(oc3oc2c2ccccc21)C(=O)c1ccccc1C4=O"
Result: -29.6

Q: Note down growth recorded for "Oc1c(CN2CCN(c3ccccc3F)CC2)cc(Br)c2cccnc12"
Result: -43

Q: Note down growth recorded for "Cc1ccc(-c2cc3nc(C(Cl)Cl)nc(-c4ccco4)n3n2)cc1"
Result: -41.3

* * *

Tested on: MDA-MB-468 breast
experiment: NCI-60 one-dose screen, 48 h
assay.context: 10 µM unless noted
Compounds without any hit were thinned out: in the full panel of roughly 83,000, 20% have a hit. The source made the active and inactive calls. The calls were made as follows: active = growth percent below 10; inactive = the rest.
Returns: one label drawn from 1 (active), 0 (inactive)

Solved entries (count: 5):
COC(=O)c1c(-c2ccccc2)csc1NC(=O)c1c(-c2ccccc2)noc1C
0
Cc1ccc(NC(=O)NC(=O)CSc2nc3ccccc3nc2C)cc1
0
Cc1ccccc1NC(=O)Nc1nc2ccc([N+](=O)[O-])cc2s1
1
COc1ccc(/C=C2\Oc3cc(OCCCN4CCCC4)ccc3C2=O)cc1
0
O=C(CSc1ncccc1C(=O)O)Nc1ccc(Oc2ccccc2)cc1
0

Q: So what was the verdict on "COc1ccc(N2CCN(Cc3cc(C(=O)/C=C/c4c[nH]c5ccccc45)ccc3O)CC2)cc1" in this test?
Result: 0

Q: So what was the verdict on "CCCCCCCCCCCCCCCCCCOc1ccccc1CC(=O)NCC[N+]1(C)CCCC1" in this test?
Result: 1

Q: So what was the verdict on "O=C(NCc1cccnc1)/C(=C\c1ccc(Br)cc1)S(=O)(=O)c1ccccc1" in this test?
Result: 1

Q: So what was the verdict on "CCN(CC)CC#CCOC(=O)[C@]1(C)CCC[C@]2(C)[C@H]3C[C@H]4C(C(C)C)=C[C@]3(CC[C@H]21)[C@@H]1C(=O)CCC(=O)[C@@H]14" in this test?
Result: 0

* * *

System: MDA-MB-468 breast
experiment: NCI-60 one-dose screen, 48 h (100 = growth as untreated, 0 = no growth, -100 = all killed)
assay.context: 10 µM unless noted
About 83,000 compounds went through this panel and 20% of them were active in at least one assay; those are over-represented in the sample as a whole.
experimental.readout: growth (%)
Express the result in % but write the number alone.

CC(C)(C)NCCC(O)c1cc2c(Cl)cc(Cl)cc2c2cc(C(F)(F)F)ccc12 (centres undefined)
-85.7
CCOC(=O)C1=C(c2ccccc2)N=C2N(c3ccccc3)N=C(C(C)=O)N2C1c1ccc(F)cc1 (centres undefined)
93.2
C[n+]1c2ccccc2c(NC2CCNCC2)c2[nH]c3ccccc3c21
-72.5

Q: Note down growth recorded for "COc1ccc(Cn2c(Br)c3c(c2-c2cc(OC)c(OC)c(OC)c2)CCc2sc(N)nc2-3)cc1"
Result: 16.3

Q: Note down growth recorded for "NC1=NN=C2N(N)C(=O)c3cnn(-c4ccccc4)c3N2c2nc(-c3ccccc3)cc(-c3ccccc3)c21"
Result: 110

Q: Note down growth recorded for "COc1cc2c3c(n(CCCN4CCC[C@H]4C(N)=O)c(=O)c2cc1OC)-c1cc2c(cc1C3=O)OCO2"
Result: 11.8

Q: Note down growth recorded for "CCOC(=O)c1c(Nc2ccccc2)nn2c(-c3ccc(OC)cc3)ccnc12"
Result: 91.1

Q: Note down growth recorded for O=C(OCC1CC2(Cl)C(Cl)=C(Cl)C1(Cl)C2(Cl)Cl)C1C(C(=O)OCC2CC3(Cl)C(Cl)=C(Cl)C2(Cl)C3(Cl)Cl)C2(Cl)C(Cl)=C(Cl)C1(Cl)C2(Cl)Cl (centres undefined)
Result: 107

Q: Note down growth recorded for "COC(=O)[C@H]1CCCN1C(=O)[C@H]1CCCN1C(=O)[C@H](Cc1c[nH]c2ccccc12)NC(=S)Nc1cc(C(F)(F)F)cc(C(F)(F)F)c1"
Result: 61

Q: Note down growth recorded for "Cc1cc(N(CCCNc2ccnc3cc(Cl)ccc23)Cc2ccco2)nc(N2CCN(C)CC2)n1"
Result: 73.7

Q: Note down growth recorded for "CN1CCC2(CC1)N=C(SCC(=O)Nc1cnc3ccccc3c1)C(c1ccc(Br)cc1)=N2"
Result: -43.8

* * *

Test system: MDA-MB-468 breast
experiment: NCI-60 one-dose screen, 48 h
assay.context: 10 µM unless noted
Compounds without any hit were thinned out: in the full panel of roughly 83,000, 20% have a hit. Activity calls are given as the source filed them. How the source made its calls: active means growth percent below 10; inactive means the rest.
Returns: one label drawn from T (active), F (inactive)

Solved entries (count: 5):
Cc1ccc(C(c2c(O)c3cc(Br)ccc3[nH]c2=O)c2c(O)c3cc(Br)ccc3[nH]c2=O)cc1
F
Nc1c(C(=O)Nc2ccnc3ccccc23)sc2nc3c(cc12)CN(Cc1ccccc1)CC3
F
COc1ccc2c(c1)C(CC(=O)NN)CCC2 (stereo not drawn)
F
C/C(=N\O)c1ccc(NC(=O)CSc2nnc(-c3cc(-c4ccc(S(N)(=O)=O)cc4)nc4ccccc34)n2-c2ccccc2)cc1
F
CN(C)CCC(=O)C1CC1
F

Q: So what was the verdict on O=C1c2ccccc2-c2cn(Cc3ccccc3)c3cccc(c23)C1c1cccnc1 (stereo not drawn) in this test?
Result: F

Q: So what was the verdict on "O=c1ccn2nc3ccccc3c2[nH]1" in this test?
Result: F

Q: So what was the verdict on CC1=C(C(=O)OC(C)C)C(c2ccc3c(c2)OCO3)NC(=S)N1 (stereo not drawn) in this test?
Result: F

Q: So what was the verdict on "Cc1nc2cc(Nc3nc(N4CCOCC4)nc(N4CCN(C)CC4)n3)ccc2n1Cc1ccccc1" in this test?
Result: F
